The reader will find reported relative viability values listed item by item below.
- Tested on: NCI-H2342
- method description: relative viability (nuclei count vs DMSO), 5 days (fraction); higher = more cells survive
- experimental parameters: first compound 0.2 µM

molecule	experimental system	relative viability
Cc1csc(=NC2CCCCC2)n1/N=C/c1ccc(O)c(O)c1O [MIM1] + N=C(N)NC(=N)NCCc1ccccc1 [Phenformin] (partner 250 µM)	NCI-H2342	0.656
Cc1csc(=NC2CCCCC2)n1/N=C/c1ccc(O)c(O)c1O [MIM1] + O=C(CCCCCCC(=O)Nc1ccccc1)NO [Vorinostat] (partner 1 µM)	NCI-H2342	0.727
Cc1csc(=NC2CCCCC2)n1/N=C/c1ccc(O)c(O)c1O [MIM1] + Cc1cc(Nc2cc(N3CCN(C)CC3)nc(Sc3ccc(NC(=O)C4CC4)cc3)n2)n[nH]1 [Tozasertib] (partner 0.1 µM)	NCI-H2342	0.429
Cc1csc(=NC2CCCCC2)n1/N=C/c1ccc(O)c(O)c1O [MIM1] + Cc1nc(Nc2ncc(C(=O)Nc3c(C)cccc3Cl)s2)cc(N2CCN(CCO)CC2)n1 [Dasatinib] (partner 0.075 µM)	NCI-H2342	0.319
Cc1csc(=NC2CCCCC2)n1/N=C/c1ccc(O)c(O)c1O [MIM1] + CC(=O)c1c(C)c2cnc(Nc3ccc(N4CCNCC4)cn3)nc2n(C2CCCC2)c1=O [Palbociclib] (partner 0.5 µM)	NCI-H2342	0.525

---

- Tested on: NCI-H2347
- method description: relative viability (nuclei count vs DMSO), 5 days (fraction); higher = more cells survive
- experimental parameters: first compound 0.001 µM

molecule	relative viability
Cc1cn(-c2cc(NC(=O)c3ccc(C)c(Nc4nccc(-c5cccnc5)n4)c3)cc(C(F)(F)F)c2)cn1 [Nilotinib] + O=C(c1cc(Cc2n[nH]c(=O)c3ccccc23)ccc1F)N1CCN(C(=O)C2CC2)CC1 [Olaparib] (partner 8 µM)	0.559
Cc1cn(-c2cc(NC(=O)c3ccc(C)c(Nc4nccc(-c5cccnc5)n4)c3)cc(C(F)(F)F)c2)cn1 [Nilotinib] + NC(=O)Nc1cc(-c2cccc(F)c2)sc1C(=O)N[C@H]1CCCNC1 [AZD7762] (partner 0.2 µM)	0.691
Cc1cn(-c2cc(NC(=O)c3ccc(C)c(Nc4nccc(-c5cccnc5)n4)c3)cc(C(F)(F)F)c2)cn1 [Nilotinib] + CS(=O)(=O)N1CCN(Cc2cc3nc(-c4cccc5[nH]ncc45)nc(N4CCOCC4)c3s2)CC1 [Pictilisib] (partner 1 µM)	0.644

---

The reader will find reported relative viability values listed item by item below.
- Tested on: 201T
- method description: relative viability (nuclei count vs DMSO), 5 days (fraction); higher = more cells survive
- experimental parameters: first compound 8 µM

molecule	relative viability
Nc1cccc2c1CN(C1CCC(=O)NC1=O)C2=O (centres undefined) [Lenalidomide] + CS(=O)(=O)N1CCN(Cc2cc3nc(-c4cccc5[nH]ncc45)nc(N4CCOCC4)c3s2)CC1 [Pictilisib] (partner 1 µM)	0.603
Nc1cccc2c1CN(C1CCC(=O)NC1=O)C2=O (centres undefined) [Lenalidomide] + CS(=O)(=O)CCNCc1ccc(-c2ccc3ncnc(Nc4ccc(OCc5cccc(F)c5)c(Cl)c4)c3c2)o1 [Lapatinib] (partner 2 µM)	0.954
Nc1cccc2c1CN(C1CCC(=O)NC1=O)C2=O (centres undefined) [Lenalidomide] + C[C@@H](Oc1cc(-c2cnn(C3CCNCC3)c2)cnc1N)c1c(Cl)ccc(F)c1Cl [Crizotinib] (partner 1 µM)	1.05
Nc1cccc2c1CN(C1CCC(=O)NC1=O)C2=O (centres undefined) [Lenalidomide] + COc1cc2c(Oc3ccc(NC(=O)C4(C(=O)Nc5ccc(F)cc5)CC4)cc3F)ccnc2cc1OCCCN1CCOCC1 [Foretinib] (partner 0.25 µM)	1.13
